Attribution: patent US11685744B2

target: CDK6/Cyclin D1 (Homo sapiens (Human), UniProt Q00534); test: CDK6/CyclinD1 enzymatic activity assay (TR-FRET); settings: ATP 250 μM, read-out: CDK6_D1 IC50
Sequence (Q00534 whole entry): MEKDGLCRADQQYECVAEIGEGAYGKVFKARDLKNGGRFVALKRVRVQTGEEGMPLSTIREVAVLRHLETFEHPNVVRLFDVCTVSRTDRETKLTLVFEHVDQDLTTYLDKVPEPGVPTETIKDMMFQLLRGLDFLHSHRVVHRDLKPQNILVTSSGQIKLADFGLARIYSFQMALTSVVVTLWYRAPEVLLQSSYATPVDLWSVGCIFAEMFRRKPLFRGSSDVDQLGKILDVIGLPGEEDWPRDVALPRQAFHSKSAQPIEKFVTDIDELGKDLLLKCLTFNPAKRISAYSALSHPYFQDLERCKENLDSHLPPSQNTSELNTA
Sequence (P24385 whole entry partner): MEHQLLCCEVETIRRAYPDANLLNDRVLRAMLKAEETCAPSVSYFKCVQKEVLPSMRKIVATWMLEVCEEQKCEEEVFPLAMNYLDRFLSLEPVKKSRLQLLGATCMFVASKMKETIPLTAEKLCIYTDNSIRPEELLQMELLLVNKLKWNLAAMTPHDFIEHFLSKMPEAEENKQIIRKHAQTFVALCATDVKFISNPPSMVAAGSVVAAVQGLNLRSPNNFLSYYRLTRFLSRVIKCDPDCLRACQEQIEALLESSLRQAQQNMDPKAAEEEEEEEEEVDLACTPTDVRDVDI
pIC50: −log10 of the molar value.

{"COMPOUND": "Cc1c(-c2nc(Nc3ccc(C4CCN(C)CC4)cn3)ncc2F)sc2c(C(C)C)cncc12", "pIC50": "6.70 to 7.70"}
{"COMPOUND": "CCN1CCN(c2ccc(Nc3ncc(F)c(-c4sc5c(nc(C)n5C5CCC5)c4C)n3)nc2)CC1", "pIC50": "≥ 7.70"}
{"COMPOUND": "CCN1CC2(C1)CN(C(=O)c1ccc(Nc3ncc(F)c(-c4cc5nc(C)n(C(C)C)c5s4)n3)nc1)C2", "pIC50": "6.70 to 7.70"}
{"COMPOUND": "CC(C)c1cn(C)c(=O)c2cc(-c3nc(Nc4ccc(C5CCN(C)CC5)cn4)ncc3F)sc12", "pIC50": "6.70 to 7.70"}
{"COMPOUND": "CC(C)c1c2sc(-c3nc(Nc4ccc(C5CCN(C)CC5)cn4)ncc3F)cc2nn1C", "pIC50": "6.70 to 7.70"}
{"COMPOUND": "CCN1CCN(Cc2ccc(Nc3ncc(F)c(-c4sc5c(ncn5C(C)C)c4C)n3)nc2)CC1", "pIC50": "≥ 7.70"}
{"COMPOUND": "CCN1CCN(C(=O)c2ccc(Nc3ncc(F)c(-c4cc5c(=O)n(C)cc(C(C)C)c5s4)n3)nc2)CC1", "pIC50": "6.70 to 7.70"}
{"COMPOUND": "Cc1c(-c2nc(Nc3ccc(N4CC5(CCN5C)C4)cn3)ncc2F)sc2c1nc(C)n2C(C)C", "pIC50": "≥ 7.70"}
{"COMPOUND": "Cc1nc2cc(-c3nc(Nc4ccc(N5CC(N(C)C)C5)cn4)ncc3F)sc2n1C(C)C", "pIC50": "≥ 7.70"}
{"COMPOUND": "Cc1c(-c2nc(Nc3ccc(C4CCN(C(C)C)C4)cn3)ncc2F)sc2c(C(C)C)cn(C)c(=O)c12 (centres unmarked)", "pIC50": "6.70 to 7.70"}
{"COMPOUND": "Cc1c(-c2nc(Nc3ccc(C4CCN(C)CC4)cn3)ncc2F)sc2c(C(C)C)cn(C)c(=O)c12", "pIC50": "≥ 7.70"}
